Biological target: LAP2-1 (Homo sapiens, UniProt Q96RT1)
Sequence (Q96RT1 1321-1410): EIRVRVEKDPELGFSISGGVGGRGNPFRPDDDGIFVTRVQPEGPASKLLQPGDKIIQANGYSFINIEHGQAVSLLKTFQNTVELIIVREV
Assay: Holdup assay, LAP2-1
Type: binding
Readout type: BI
Respond using a number only.

Q: Recorded BI of CC[C@H](C)[C@H](NC(=O)[C@H](CCC(N)=O)NC(=O)[C@@H](NC(=O)[C@H](Cc1c[nH]cn1)NC(=O)[C@H](CCC(N)=O)NC(=O)[C@H](CC(=O)O)NC(=O)[C@H](CCC(=O)O)NC(=O)[C@H](CC(=O)O)NC(=O)CCC(=O)NCCCOCCOCCOCCCNC(=O)CCCC[C@@H]1SC[C@@H]2NC(=O)N[C@@H]21)[C@@H](C)O)C(=O)N[C@H](C(=O)N[C@@H](CCCCN)C(=O)N[C@H](C(=O)O)C(C)C)[C@@H](C)O [PTEN_11] , please.
Ans: 0.305

----------
System: 266 human PDZ domains (PDZome)
Assay: Holdup assay (chromatographic retention, PDZome-binding profile, BI)
Set-up: key: binding intensity: 0.00 = no binding, 1.00 = maximal binding
Conditions: PDZ domain SIPA1L2-1
Excerpt: The holdup method is a chromatographic approach in solution developed in our group that allows to measure the binding strength of a peptide, attached to a resin, against a library of domains of a same family. […] The flow-throughs containing the unbound protein fraction are recovered by filtration and loaded on a capillary electrophoresis instrument to quantify the amount of remaining free PDZ. […] The assay is particularly suited to quantitatively evaluate and compare large numbers of interactions. […]
*1 amine or outer side, *2 acyl side, *3 side chain or, on linkers, in order; H or OH if unused. Where a SMILES comes first, the peptide text is derived from it. The star is where a group is joined. X1 = O=C(CCCC[C@@H]1SC[C@@H]2NC(=O)N[C@@H]21)NCCCOCCOCCOCCCN*; Suc = O=C(CCC(=O)[*:2])[*:1]
We begin with a simple list: items and their reported BI.
Respond using a number only.

{"Compound": "CC[C@H](C)[C@H](NC(=O)[C@H](CCC(N)=O)NC(=O)[C@@H](NC(=O)[C@H](Cc1c[nH]cn1)NC(=O)[C@H](CCC(N)=O)NC(=O)[C@H](CC(=O)O)NC(=O)[C@H](CCC(=O)O)NC(=O)[C@H](CC(=O)O)NC(=O)CCC(=O)NCCCOCCOCCOCCCNC(=O)CCCC[C@@H]1SC[C@@H]2NC(=O)N[C@@H]21)[C@@H](C)O)C(=O)N[C@H](C(=O)N[C@@H](CCCCNC(C)=O)C(=O)N[C@H](C(=O)O)C(C)C)[C@@H](C)O", "BI": -0.001}
{"Compound": "CC[C@H](C)[C@H](NC(=O)[C@H](CCC(N)=O)NC(=O)[C@@H](NC(=O)[C@H](Cc1c[nH]cn1)NC(=O)[C@H](CCC(N)=O)NC(=O)[C@H](CC(=O)O)NC(=O)[C@H](CCC(=O)O)NC(=O)[C@H](CC(=O)O)NC(=O)CCC(=O)NCCCOCCOCCOCCCNC(=O)CCCC[C@@H]1SC[C@@H]2NC(=O)N[C@@H]21)[C@@H](C)O)C(=O)N[C@H](C(=O)N[C@@H](CCCNC(=N)N)C(=O)N[C@H](C(=O)O)C(C)C)[C@@H](C)O [PTEN_KR] ({X1-Suc}-DEDQHTQITRV-OH)", "BI": 0.064}

Here is the next item to consider.
Q: Recorded BI of `CC[C@H](C)[C@H](NC(=O)[C@H](CCC(N)=O)NC(=O)[C@@H](NC(=O)[C@H](Cc1c[nH]cn1)NC(=O)[C@H](CCC(N)=O)NC(=O)[C@H](CC(=O)O)NC(=O)[C@H](CCC(=O)O)NC(=O)[C@H](CC(=O)O)NC(=O)CCC(=O)NCCCOCCOCCOCCCNC(=O)CCCC[C@@H]1SC[C@@H]2NC(=O)N[C@@H]21)[C@@H](C)O)C(=O)N[C@H](C(=O)N[C@@H](CCCCN)C(=O)N[C@H](C(=O)O)C(C)C)[C@@H](C)O` , please.
Ans: 0.019
